Values were extracted from patent US20110286916A1.

Assay Target: T1, Notch1 extracellular fragment (amino acid 19-526) Fc fusion protein, R&D Systems 3647-TK (human, UniProt P46531 19-526)
T1 construct: bought protein; also called Notch1/Fc; Notch1-ECD Fc fusion protein; not shown: Fc of the bought fusion protein
T1 sequence (P46531 19-526 limits assumed): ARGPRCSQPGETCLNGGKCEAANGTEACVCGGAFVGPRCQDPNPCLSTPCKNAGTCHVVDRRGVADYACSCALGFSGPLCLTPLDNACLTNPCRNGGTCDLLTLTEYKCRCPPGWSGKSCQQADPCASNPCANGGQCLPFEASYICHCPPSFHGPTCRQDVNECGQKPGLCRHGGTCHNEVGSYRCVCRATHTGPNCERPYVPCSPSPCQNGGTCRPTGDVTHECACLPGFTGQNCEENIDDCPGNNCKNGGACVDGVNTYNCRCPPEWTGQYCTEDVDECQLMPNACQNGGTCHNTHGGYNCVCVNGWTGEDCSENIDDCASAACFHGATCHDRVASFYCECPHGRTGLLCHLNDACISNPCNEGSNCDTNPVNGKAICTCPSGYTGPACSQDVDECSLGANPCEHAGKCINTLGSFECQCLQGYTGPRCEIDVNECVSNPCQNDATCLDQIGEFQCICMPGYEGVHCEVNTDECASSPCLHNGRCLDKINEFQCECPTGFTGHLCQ
Assay Summary: BIAcore SPR, Notch1/Fc on CM5, Mab analyte, 1:1 binding
hey, just use rule met if measured kon is less than 500000 M⁻¹ s⁻¹, otherwise rule not met

Recorded results for 3 binders are shown here.
# Binder, Label Value
rows = [
    ("HN1S3-133 (antibody, human IgG1, lambda, V domains shown) VH: QVQLVQSGPEVKKPGTSVKVSCKASGFTFTSSAVQWVRQARGQRLEWIGWIVVGSGNTNYAQKFQERVTITRDMSTSTAYMELSSLRSEDTAVYYCVADTVYWGQGTLVTVSS VL: QSVLTQPPSVSEAPRQRVTISCSGSSSNIGNNAVNWYQQLPGEAPKLLIYYDDLLPSGVSDRFSGSKSGSSASLAISGLQAEDEADYYCATWDDSLNAWVFGGGTKVTVLQ", "rule not met"),
    ("WC-155 (antibody, human IgG1, lambda, V domains shown, also called N1wc155; hN1wc-155) VH: EVQLVQSGAEVKKPGASVKVSCKASGYNFTGYYMHWVRQAPGQGLEWMGWINPNSGGTNYAQKFQGRVTMTRDTSISTAYMELSRLRSDDTAVYYCATDSFDYWGRGTLVTVSS VL: QSVLTQPPSVSGAPGQRVTISCTGSSSNIGAGYDVLWYRQLPGTAPKLLIYGNTHRPSGVPDRFSGSNSGTSASLAITGLQAEDEADYYCQSYDSSLSGSVFGGGTKLTVLQ", "rule met"),
    ("WC-173 (antibody, human IgG1, lambda, V domains shown, also called N1wc173; hN1wc-173) VH: EVQLVQSGAEVKKPGASVKVSCKASGYNFTGYYMHWVRQAPGQGLEWMGWINPNSGGTNYAQKFQGRVTMTRDTSISTAYMELSRLRSDDTAVYYCATDSFDYWGQGTTVTVSS VL: QPVLTQPPSASWTPGQRVTISCSGSSSNIGSNTVHWYRQFPGTAPQLLIYSNNQRPSGVPDRFSGSKSGTSASLAIRGLQSEDEADYYCAAWDDSLNGVVFGGGIKLTVLQ", "rule met"),
]

kon under 500000 M⁻¹ s⁻¹? Item: S3-013 (antibody, human IgG1, lambda, V domains shown, also called hN1S3-013; HN1S3-13) VH: EVQLVQSGAEVKKPGASVKVSCKASGYNFTGYYMHWVRQAPGQGLEWMGWINPNSGGTNYAQKFQGRVTMTRDTSISTAYMELSRLRSDDTAVYYCATDSFDYWGRGTLVTVSS VL: QPVLTQPPSASGTPGQRVTISCSGSSSNIGSNYVYWYQKFPGTAPKLLIYTNNQRPSGVPDRFSGSKSGTSASLAISGLRSEDEADYYCAAWDDSLSGVVFGGGTKVTVLQ
rule not met

kon under 500000 M⁻¹ s⁻¹? Item: WC-97 (antibody, human IgG1, lambda, V domains shown, also called N1wc97; hN1wc-97) VH: EVQLVQSGAEVKKPGASVKVSCKASGYNFTGYYMHWVRQAPGQGLEWMGWINPNSGGTNYAQKFQGRVAMTRDTSISTAYMELSRLRSDDSAVYYCATDSFDYWGRGTTVTVSS VL: QSVLTQPPSVSGAPGQRVTISCTGTSSNIGAGYDVQWYQQLPGTAPKVLMYGNSNRPSGVPDRFSGSKSGTSASLAITGLQAEDEADYYCQSYDSSLSGSLFGTGTKVTVLQ
rule met

kon under 500000 M⁻¹ s⁻¹? Item: S3-094 (antibody, human IgG1, lambda, V domains shown, also called hN1S3-094; HN1S3-94) VH: EVQLVQSGAEVKKPGASVKVSCKASGYNFTGYYMHWVRQAPGQGLEWMGWINPNSGGTNYAQKFQGRVTMTRDTSISTAYMELSRLRSDDTAVYYCATDSFDYWGRGTMVTVSS VL: QSVLTQPPSASGTPGQRVTISCSGGSSNIGSNTVTWYQQLPGKAPKLLIYISDQRPSGVPDRFSGSKSGTSASLAIRGLQSEDEADYYCAAWDDSLNGAVFGTGTKVTVLQ
rule met
